- Test system: A549/ATCC NSCLC
- Protocol Description: NCI-60 one-dose screen, 48 h
- Test Parameters: 10 µM unless noted
About 83,000 compounds went through this panel and 20% of them were active in at least one assay; those are over-represented in the sample as a whole. Active and inactive are the calls of the source. Rule for the calls: active = growth percent below 10; inactive = the rest.
Labels: yes for active, no for inactive

- Compound: "COc1ccc(-c2nc(-c3ccccc3)c(-c3ccccc3)[nH]2)cc1OC1CCCCC1"
  Assigned Class: "no"
- Compound: "O=c1[nH]nnc2c1ncn2C1OC(CO)C(O)C1O (stereo not given)"
  Assigned Class: "no"
- Compound: "CCCSC1=NC2C(N(CC)C(=O)N2CC)N1/N=C/C=C/c1ccccc1[N+](=O)[O-] (stereo not given)"
  Assigned Class: "no"
- Compound: "COc1cc(C(=O)O/N=C(\\N)Cc2cccc3ccccc23)cc(OC)c1OC"
  Assigned Class: "no"
- Compound: "COc1ccc(/C=C2\\N=C(c3ccccc3)N(c3ccc(-c4nc5ccc(C)cc5s4)cc3)C2=O)cc1"
  Assigned Class: "no"
- Compound: "O=C(NCCCN1CCC(N2CCCCC2)CC1)C1=Cc2cc(Br)ccc2OC1"
  Assigned Class: "no"
- Compound: "O=c1oc2ccc(-c3ccc(F)cc3F)cc2c(=O)n1-c1cccc(C(F)(F)F)c1"
  Assigned Class: "yes"
- Compound: "COc1ccc(/C=C2\\CCC/C(=C\\c3ccc(OC)c(OC)c3)C2=O)cc1OC"
  Assigned Class: "no"
- Compound: "CC(=O)c1ccc(NC(=O)Nc2ccc(S(=O)(=O)Nc3ccc(Cl)nn3)cc2)cc1"
  Assigned Class: "no"
- Compound: "Cc1cccc2c(=O)c3c(sc12)c(N1CCNCC1)nc1ccccc13"
  Assigned Class: "no"

---

- Test system: SK-MEL-28 melanoma
- Protocol Description: NCI-60 one-dose screen, 48 h (100 = growth as untreated, 0 = no growth, -100 = all killed)
- Test Parameters: 10 µM
About 83,000 compounds went through this panel and 20% of them were active in at least one assay; those are over-represented in the sample as a whole.

- Molecule: "COc1ccc(N(C)c2nc(N)nc3sc4c(c23)CCCC4)cc1"
  Unit Spec: "%"
  growth: 55
- Molecule: "CCOC(=O)c1c(Cl)c2c(n1Cc1ccccc1)-c1oncc1CCC2"
  Unit Spec: "%"
  growth: 44.7
- Molecule: "O=C(Nc1ccc(N2CCNCC2)cc1)c1[nH]ncc1Nc1ncnc2sc3c(c12)CCC3"
  Unit Spec: "%"
  growth: -84.7
- Molecule: "Cc1ccc(Nc2nc(N)c3ccccc3n2)cc1Cl"
  Unit Spec: "%"
  growth: 102
- Molecule: "O=Nc1c(O)ccc2ccccc12.O=Nc1c(O)ccc2ccccc12.O=Nc1c([O-])ccc2ccccc12.[Fe+3]"
  Unit Spec: "%"
  growth: 104
- Molecule: "CN1C(=O)N(C)C2C1NN=c1s/c(=C\\c3ccc(Cl)cc3Cl)c(=O)n12 (stereo unspecified)"
  Unit Spec: "%"
  growth: 58.7
- Molecule: "COc1ccc(-n2c(C(O)c3ccccc3)n[nH]c2=S)cc1 (stereo unspecified)"
  Unit Spec: "%"
  growth: 115
- Molecule: "CCOC(=O)c1cc2c(n1Cc1ccccc1OC)-c1oncc1CCC2"
  Unit Spec: "%"
  growth: 44.8
- Molecule: "NC(=O)CSc1nc(-c2ccc(F)cc2)cc(-c2ccco2)n1"
  Unit Spec: "%"
  growth: 115
- Molecule: "CCN(CC)c1cc(C)c2cc(NC(=O)c3cccc(OC)c3)ccc2n1"
  Unit Spec: "%"
  growth: 85.2
- Molecule: "COc1ccc(C)c2sc(N(Cc3cccnc3)C(=O)c3ccc(C#N)cc3)nc12"
  Unit Spec: "%"
  growth: 15.9
- Molecule: "CCCCCCn1c(=N)n(CC(O)COc2cccc(C)c2)c2ccccc21 (stereo unspecified)"
  Unit Spec: "%"
  growth: -92.3
- Molecule: "CCCCCCc1cc2cc(-c3csc(/C=C/c4ccccc4)n3)c(=O)oc2cc1O"
  Unit Spec: "%"
  growth: -96.1
- Molecule: "O=C(Nc1ccccc1O)c1ccc(Oc2cccc(C(=O)Nc3ccccc3O)c2)cc1"
  Unit Spec: "%"
  growth: 32.6
- Molecule: "CCn1c(Cc2ccccc2Nc2c(Cl)cccc2Cl)nnc1SCC(=O)NN1C(=O)/C(=C/c2cccc(OC)c2OC)SC1=S"
  Unit Spec: "%"
  growth: 104
- Molecule: "O=c1oc2ccc(Cl)cc2c(=O)n1-c1ccc(Cl)cc1F"
  Unit Spec: "%"
  growth: 0.566
- Molecule: "O=C1C(Cl)=C(NCc2ccco2)C(=O)c2ccccc21"
  Unit Spec: "%"
  growth: 106
- Molecule: "O=C(/C=C/c1ccccc1)c1ccc(Nc2nc(NCCO)nc(Nc3ccc(Cl)cc3)n2)cc1"
  Unit Spec: "%"
  growth: 88.2
- Molecule: "O=C(/C=C/c1ccc(Cl)cc1)c1ccc(Nc2nc(NCCO)nc(N3CCOCC3)n2)cc1"
  Unit Spec: "%"
  growth: 94.7
- Molecule: "CN1CCN(c2nc(Nc3ccc(O)cc3)nc3ccccc23)CC1"
  Unit Spec: "%"
  growth: 66.2
- Molecule: "COc1ccc(/C=C/C(=O)c2ccc3cc(OC)c(OC)cc3c2)cc1OC"
  Unit Spec: "%"
  growth: 96.3
- Molecule: "CC(C)[C@H](NC(=O)Cn1cc(C(=O)O)nn1)C(=O)O"
  Unit Spec: "%"
  growth: 111
- Molecule: "COc1ccc(Cn2cc(Cn3cc(C=C4C(=O)NC(=O)NC4=O)c4ccccc43)nn2)cc1"
  Unit Spec: "%"
  growth: 102
- Molecule: "O=C(CCN1C(=O)c2ccccc2C1=O)Nc1ccc(Cl)cc1"
  Unit Spec: "%"
  growth: 117
- Molecule: "COc1cc(/C(C#N)=C/c2nc3c(N4CCOCC4)nc(Cl)nc3n2C)cc(OC)c1OC"
  Unit Spec: "%"
  growth: 46
- Molecule: "O=C(c1nc2ccccc2[nH]1)C1C(c2ccc([N+](=O)[O-])cc2)C2CC3CCCCC3N2[C@@]12C(=O)Nc1cc(Cl)ccc12 (stereo partly specified)"
  Unit Spec: "%"
  growth: 44.9
- Molecule: "CN=c1ccc2nc3ccc(N)cc3sc-2c1"
  Unit Spec: "%"
  growth: 51.7
- Molecule: "CN(O)c1nc(N(C)O)nc(N2CCOCC2)n1"
  Unit Spec: "%"
  growth: 61.1
- Molecule: "CN(C)c1ccc(N=Cc2ccc(N3CCOCC3)cc2)cc1"
  Unit Spec: "%"
  growth: 114
- Molecule: "Cc1nc2ccccc2c(/C=C/c2ccccc2)c1C(=O)/C=C/c1ccc(Cl)cc1"
  Unit Spec: "%"
  growth: 19.2
- Molecule: "COc1ccc(/C=C2\\NC(=O)NC2=O)cc1O"
  Unit Spec: "%"
  growth: 104
- Molecule: "Nc1ccc(-c2ccc(-c3ccccc3N)c3[nH]c4ccccc4c23)cc1"
  Unit Spec: "%"
  growth: 51
- Molecule: "COC(=O)C1=Nc2ccc(F)cc2/C1=C/c1sc(=S)[nH]c1O"
  Unit Spec: "%"
  growth: 59.4
- Molecule: "COc1ccc(-c2nc(-c3ccccn3)c(-c3ccccn3)n2CC(C)C)cc1OC1CCCC1"
  Unit Spec: "%"
  growth: 35.9
- Molecule: "COc1ccc(-c2cn3c(C(=O)Nc4ccccc4Cl)c(-c4ccccc4)c4c3n2CCCC4)cc1"
  Unit Spec: "%"
  growth: 91.6
- Molecule: "CSc1nc2c(c(=O)n1C)N=C1c3ccccc3C(=O)C1C(c1ccccc1)N2 (stereo unspecified)"
  Unit Spec: "%"
  growth: 72.5
- Molecule: "C#CCn1cc(C=C2C(=O)NC(=O)NC2=O)c2cc(Cl)ccc21"
  Unit Spec: "%"
  growth: 106
- Molecule: "CC(=O)c1ccc(Nc2nc(NCCO)nc(Nc3ccc(Cl)cc3)n2)cc1"
  Unit Spec: "%"
  growth: 95.2
- Molecule: "COc1ccc(-c2cn[nH]c2-c2cc(OC)c(OC)c(OC)c2)cc1OCc1ccccc1"
  Unit Spec: "%"
  growth: 48.5
- Molecule: "Clc1ccc(Oc2ccc(Nc3ncnc4onc(-c5ccccc5)c34)cc2)c(Cl)c1"
  Unit Spec: "%"
  growth: 102
- Molecule: "Cc1ccc(C2CC(c3ccc(Nc4nc(NCCO)nc(Nc5ccc(Cl)cc5)n4)cc3)=NN2c2cc(Cl)cc(Cl)c2)cc1 (stereo unspecified)"
  Unit Spec: "%"
  growth: 105

// data source = PubChem BioAssay (NCI)
